- target system: M4 muscarinic receptor (Homo sapiens, UniProt P08173)
- Construct: expressed in transfected cells; host or cells: CHO
- Sequence (P08173 1-479): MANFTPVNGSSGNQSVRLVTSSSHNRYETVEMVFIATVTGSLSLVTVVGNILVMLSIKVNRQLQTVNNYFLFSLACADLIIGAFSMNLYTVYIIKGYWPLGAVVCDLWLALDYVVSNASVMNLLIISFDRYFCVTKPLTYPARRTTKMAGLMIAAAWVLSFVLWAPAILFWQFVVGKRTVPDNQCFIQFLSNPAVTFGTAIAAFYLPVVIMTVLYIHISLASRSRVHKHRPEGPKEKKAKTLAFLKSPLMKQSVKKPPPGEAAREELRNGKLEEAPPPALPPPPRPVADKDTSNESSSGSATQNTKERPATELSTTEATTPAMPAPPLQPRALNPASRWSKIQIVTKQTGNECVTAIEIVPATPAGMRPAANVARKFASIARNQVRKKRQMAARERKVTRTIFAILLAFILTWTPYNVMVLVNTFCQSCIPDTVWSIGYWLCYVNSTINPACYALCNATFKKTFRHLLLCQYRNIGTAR
- test details: Functional mobilization of intracellular calcium (FLIPR) in CHO cells expressing M4
- Type: cell-based
- assay conditions: CHO; 100% efficacy is the maximum response obtained with the Carbachol control
readout name: Emax

Prompt: For the molecule CC(=O)N1CCCC2(CCN(CCC(C)(C)C)CC2)c2ccccc21 , report Emax.
Completion: 25 to 100%

Prompt: Given CCOC(=O)N1C2CCC1CC(N1CCC3(CCCN(C(N)=O)c4ccccc43)CC1)C2 (centres unmarked) , respond with its Emax.
Completion: 25 to 100%

Prompt: Give recorded Emax. CC(=O)N1CCCC2(CCN(CC3CCCCC3)CC2)c2ccccc21
Completion: < 25%

Prompt: Please look at this molecule and report its Emax: NC(=O)N1CCCC2(CCN(C3CC4CCC(C4)C3)CC2)c2ccccc21 (centres unmarked)
Completion: 25 to 100%

Prompt: Quick one: give measured Emax for CCOC(=O)N1CCC(N2CCC3(CCC(=O)Nc4ccccc43)CC2)CC1
Completion: 25 to 100%

The measurements presented in this section are drawn from patent US7786107B2.
